# Test system: IFNγ
# test: Cytokine assay: IFNγ release from PHA-L stimulated human PBMCs
# Format: cell-based
# assay_setup: Homo sapiens, PBMC
The entries below are paired with their reported IC50.
The answer is to be given in nM; state only the numeric part.

Previously resolved entries follow.
compound	assayed_system	measurement_name	result_units	endpoint_result
CCOc1c(OC)ccc(-c2cccc(C3COB(O)C3)c2)c1C#N (centres unmarked) [Example 191]	IFNγ	IC50	nM	4.42
CCCOc1cc(-c2cncc(C3COB(O)C3)n2)ccc1OC (centres unmarked)	IFNγ	IC50	nM	1.68
CCCOc1cc(-c2nc(C)cc(C3COB(O)C3)n2)ccc1OC (centres unmarked) [Example 54]	IFNγ	IC50	nM	4.2
COc1cc(-c2cccc(C3COB(O)C3)c2)cc(C#N)c1OC (centres unmarked)	IFNγ	IC50	nM	10

Alright, here's another compound for you.
Which IC50 value belongs to COc1ccc(-c2cncc(C3COB(O)C3)c2)cc1OCCCO (single isomer, unassigned) ?
1.87

FYI, the data here is from patent US11559538B2.
